Measured values drawn from patent US6632829B2 for this set.

- method.description: Oral half-life and peak plasma levels
- Format: in vivo
- cond: oral
Each entry below carries its recorded POt½ in Rat.
Only the number, expressed in h, is required.

given.smiles: Cc1cc(C)c(NC(=O)c2sccc2S(=O)(=O)Nc2onc(C)c2C)c(C)c1CC#N
POt½ in Rat, h: 1.8
//
given.smiles: Cc1cc(C)c(NC(=O)c2sccc2S(=O)(=O)Nc2onc(C)c2Cl)c(C)c1C#N
POt½ in Rat, h: 3.9
//
given.smiles: Cc1cc(C)c(S(N)(=O)=O)c(C)c1NC(=O)c1sccc1S(=O)(=O)Nc1onc(C)c1Cl
POt½ in Rat, h: 3.4
//
given.smiles: Cc1cc(C)c(NC(=O)c2sccc2S(=O)(=O)Nc2onc(C)c2Cl)c(C)c1CC#N
POt½ in Rat, h: 3.4

### Prompt Field request: POt½ in Rat | item: Cc1cc2c(cc1CC(=O)c1sccc1S(=O)(=O)Nc1onc(C)c1Cl)OCO2
### Response 4.1

* * *

- System: Pulmonary Hypertension model
- method.description: Pulmonary Hypertension model
- Format: in vivo, rat
- Design: key: ++: effective at 5 mg/kg; −: no effect at 5 mg/kg; +: effective at 15 mg/kg
measured.endpoint: in vivo Efficacy

Please review the following examples before continuing.
given.smiles: Cc1cc2c(cc1CC(=O)c1sccc1S(=O)(=O)Nc1onc(C)c1Cl)OCO2
in vivo Efficacy: ++

given.smiles: Cc1cc(C)c(NC(=O)c2sccc2S(=O)(=O)Nc2noc(C)c2Cl)c(C)c1CC#N
in vivo Efficacy: −

given.smiles: Cc1cc(C)c(NC(=O)c2sccc2S(=O)(=O)Nc2onc(C)c2Cl)c(C)c1C#N
in vivo Efficacy: ++

given.smiles: Cc1cc(C)c(NC(=O)c2sccc2S(=O)(=O)Nc2onc(C)c2Cl)c(C)c1O
in vivo Efficacy: ++

The record that follows has no in vivo Efficacy shown yet.
### Prompt Identify the measured in vivo Efficacy of Cc1cc(C)c(NC(=O)c2sccc2S(=O)(=O)Nc2onc(C)c2Cl)c(C)c1CC#N for Pulmonary Hypertension model.
### Response ++

* * *

- experimental.target: human ETB receptor (Homo sapiens, UniProt P24530)
- Construct: expressed in transfected cells; host or cells: COS7 cells
- Sequence (P24530 27-442): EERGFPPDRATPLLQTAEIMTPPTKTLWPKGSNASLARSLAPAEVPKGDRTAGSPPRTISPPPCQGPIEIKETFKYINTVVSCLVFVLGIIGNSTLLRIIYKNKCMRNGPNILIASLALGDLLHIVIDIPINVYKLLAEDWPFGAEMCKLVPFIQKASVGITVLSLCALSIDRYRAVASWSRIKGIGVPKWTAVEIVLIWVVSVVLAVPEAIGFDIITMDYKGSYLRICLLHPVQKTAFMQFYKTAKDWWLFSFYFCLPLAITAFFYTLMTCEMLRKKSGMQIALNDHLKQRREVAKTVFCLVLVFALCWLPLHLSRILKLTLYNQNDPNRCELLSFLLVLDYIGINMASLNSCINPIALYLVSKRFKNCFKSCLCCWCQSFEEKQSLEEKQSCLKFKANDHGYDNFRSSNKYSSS
- method.description: Endothelin binding inhibition, Binding Test #2: competition with 125I-ET-1 for ETB receptors on transfected COS7 cell membranes
- cond: incubation at 24° C. (values marked †)
measured.endpoint: pIC50
Scale note: pIC50 = -log10(concentration in M).

Please review the following examples before continuing.
given.smiles: Cc1cc(C)c(OCc2sccc2S(=O)(=O)Nc2onc(C)c2Br)c(C)c1
test.value: 5.47

given.smiles: Cc1noc(NS(=O)(=O)c2ccsc2COc2ccc3c(c2Cl)OCO3)c1Br
test.value: 6.12

given.smiles: Cc1ccc(OCc2ccsc2S(=O)(=O)Nc2onc(C)c2Br)c(C)c1
test.value: 5.13

### Prompt Field request: pIC50 | item: Cc1ccc(OCc2ccsc2S(=O)(=O)Nc2onc(C)c2Br)cc1
### Response 4.64

### Prompt Okay, and Cc1cc2c(cc1CC(=O)c1sccc1S(=O)(=O)Nc1onc(C)c1C)OCO2 ?
### Response 4.46

* * *

- experimental.target: human ETA receptors (Homo sapiens)
- Construct: endogenous in cells; host or cells: TE 671 cells (ATCC HTB 139), membrane preparation
- method.description: Endothelin binding inhibition, Binding Test #1: competition with 125I-ET-1 for ETA receptors on TE 671 cell membranes
- cond: incubation at 24° C. (values marked †)
pIC50: −log10 of the molar value.
Grouping by measured pIC50 is done with the following cut points: low: < 7; intermediate: ≥ 7 and < 8; high: ≥ 8

Solved entries:
given.smiles: COC(=O)c1cc(C)c(NC(=O)c2sccc2S(=O)(=O)Nc2onc(C)c2Cl)c(C)c1
qualitative.label: high

given.smiles: COc1ccc(NC(=O)c2sccc2S(=O)(=O)Nc2onc(C)c2Cl)c(C)c1
qualitative.label: intermediate

given.smiles: Cc1ccc(CC(=O)c2sccc2S(=O)(=O)Nc2onc(C)c2Br)cc1
qualitative.label: low

### Prompt Class? Entry: COc1cccc(NCc2sccc2S(=O)(=O)Nc2onc(C)c2C)c1
### Response low

### Prompt Okay, and Cc1cccc(OC(=O)c2sccc2S(=O)(=O)Nc2onc(C)c2Br)c1 ?
### Response low

* * *

- experimental.target: human ETA receptors (Homo sapiens)
- Construct: endogenous in cells; host or cells: TE 671 cells (ATCC HTB 139), membrane preparation
- method.description: Endothelin binding inhibition, Binding Test #1: competition with 125I-ET-1 for ETA receptors on TE 671 cell membranes
- cond: incubation at 4° C. (values without †)
measured.endpoint: log10(IC50) (log10 of the value in nM)
Please interpret these as log10 of IC50 where IC50 is in nM.

given.smiles: Cc1ccc(NC(=O)c2sccc2S(=O)(=O)Nc2onc(C)c2C)cc1
log10(IC50): 0.53

given.smiles: COC(=O)c1sccc1S(=O)(=O)Nc1onc(C)c1Cl
log10(IC50): 2.80

given.smiles: Cc1noc(NS(=O)(=O)c2ccsc2C(=O)N(C)c2ccccc2)c1Br
log10(IC50): 2.27

given.smiles: Cc1noc(NS(=O)(=O)c2ccsc2CO)c1Br
log10(IC50): 2.20

The record that follows has no log10(IC50) shown yet.
### Prompt Field request: log10(IC50) | item: Cc1noc(NS(=O)(=O)c2sccc2C(=O)Nc2ccccc2)c1C
### Response 2.21

* * *

Each entry below carries its recorded log10(IC50).
- experimental.target: human ETA receptors (Homo sapiens, UniProt P25101)
- Construct: endogenous in cells; host or cells: TE 671 cells (ATCC HTB 139), membrane preparation
- Sequence (P25101 21-427): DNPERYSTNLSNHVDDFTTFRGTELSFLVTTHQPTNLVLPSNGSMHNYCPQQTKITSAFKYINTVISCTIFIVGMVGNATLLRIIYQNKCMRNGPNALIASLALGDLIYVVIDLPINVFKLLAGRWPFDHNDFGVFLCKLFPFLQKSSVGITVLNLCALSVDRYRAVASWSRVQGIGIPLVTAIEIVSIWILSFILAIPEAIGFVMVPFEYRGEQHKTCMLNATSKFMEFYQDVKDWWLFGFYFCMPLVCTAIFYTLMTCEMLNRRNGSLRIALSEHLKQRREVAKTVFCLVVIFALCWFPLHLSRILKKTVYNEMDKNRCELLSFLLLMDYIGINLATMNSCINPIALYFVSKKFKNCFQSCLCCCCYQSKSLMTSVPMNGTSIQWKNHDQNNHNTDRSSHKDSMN
- method.description: Endothelin binding inhibition, Binding Test #1: competition with 125I-ET-1 for ETA receptors on TE 671 cell membranes
- cond: incubation at 24° C. (values marked †)
Please interpret these as log10 of IC50 where IC50 is in nM.

molecule: Cc1ccc(OC(=O)c2sccc2S(=O)(=O)Nc2onc(C)c2Br)c(C)c1
log10(IC50): 2.46
--
molecule: Cc1noc(NS(=O)(=O)c2ccsc2C(=O)Nc2cc3c(cc2CC(=O)N(C)C)OCO3)c1Cl
log10(IC50): 0.95
--
molecule: Cc1noc(NS(=O)(=O)c2ccsc2C(=O)Oc2ccc3c(c2)OCO3)c1Br
log10(IC50): 0.86
--
molecule: Cc1cc(C)c(CNC(=O)c2sccc2S(=O)(=O)Nc2onc(C)c2Cl)c(C)c1CC#N
log10(IC50): 2.73
--
molecule: Cc1noc(NS(=O)(=O)c2c(-c3ccc4c(c3)OCO4)sc3ccccc23)c1Cl
log10(IC50): 2.74
--
molecule: COc1cccc(-c2ccsc2S(=O)(=O)Nc2onc(C)c2Br)c1
log10(IC50): 2.52
--
molecule: Cc1cc(C)c(CCc2ccsc2S(=O)(=O)Nc2onc(C)c2Br)c(C)c1
log10(IC50): 1.74
--
molecule: Cc1cc2c(cc1C=CCc1sccc1S(=O)(=O)Nc1onc(C)c1Br)OCO2
log10(IC50): 1.91

### Prompt Field request: log10(IC50) | item: Cc1ccc(OCc2sccc2S(=O)(=O)Nc2onc(C)c2Br)cc1
### Response 3.08

### Prompt Okay, and Cc1cc2c(cc1NC(=O)c1sccc1S(=O)(=O)Nc1onc(C)c1Cl)OCO2 ?
### Response 0.48

### Prompt Okay, and Cc1noc(NS(=O)(=O)c2ccsc2C(=O)NS(=O)(=O)c2cccc3c(N(C)C)cccc23)c1Br ?
### Response 2.99

### Prompt Okay, and Cc1noc(NS(=O)(=O)c2ccsc2C(=O)Cc2ccc3c(c2)OCO3)c1Br ?
### Response 0.96

### Prompt Okay, and Cc1cc(C)c(NC(=O)c2sccc2S(=O)(=O)Nc2onc(C)c2Cl)c(C)c1 ?
### Response 0.20

* * *

- experimental.target: human ETA receptors (Homo sapiens, UniProt P25101)
- Construct: endogenous in cells; host or cells: TE 671 cells (ATCC HTB 139), membrane preparation
- method.description: Endothelin binding inhibition, Binding Test #1: competition with 125I-ET-1 for ETA receptors on TE 671 cell membranes
- cond: incubation at 24° C. (values marked †)
measured.endpoint: pIC50
Scale note: pIC50 = -log10(concentration in M).

given.smiles: COC(=O)Cc1c(C)cc(C)c(NC(=O)c2sccc2S(=O)(=O)Nc2onc(C)c2Cl)c1C
pIC50: 9.00

The record that follows has no pIC50 shown yet.
### Prompt Field request: pIC50 | item: Cc1noc(NS(=O)(=O)c2ccsc2NC(=O)Oc2ccc3c(c2)OCO3)c1Br
### Response 7.06
